Entries and their T/C values follow.
test system: CD2F1 mice, L1210 leukemia ip, survival T/C; experiment: NCI In Vivo Anticancer Drug Screen. Data for tumor model L1210 Leukemia (intraperitoneal) in CD2F1 (CDF1) mice; details: endpoint: mean survival time; dose: 400.0 mg/kg/injection; schedule: Q04DX003 (ip); vehicle: saline; higher = longer survival
Toxic doses and inconclusive results are not listed.

- compound: "CC(=O)NCCNC(C)=O"
  T/C: "91 % of control"
- compound: "O=[N+]([O-])c1cccc(N=C(c2ccccc2)N(O)c2ccccc2)c1"
  T/C: "103 % of control"
- compound: "Cc1cccc(-n2cc(C#N)c3c(C)cc(C)nc32)c1"
  T/C: "97 % of control"
- compound: "CCCN(CCC)CCCOC(=O)c1ccc([N+](=O)[O-])cc1"
  T/C: "94 % of control"
- compound: "O=c1c(Cl)c2cc3c(cc2c2ccccc12)nc1ccccc1n3Cc1ccc([N+](=O)[O-])cc1"
  T/C: "91 % of control"
- compound: "NC(=S)c1csc(CCNC(=O)c2ccccc2)n1"
  T/C: "93 % of control"
- compound: "NC(CS(=O)(=O)O)c1ccccc1 (stereo unspecified)"
  T/C: "97 % of control"
- compound: "O=C(C[n+]1cccc(C(=O)Nc2ccc(Cl)cc2)c1)NCc1ccccc1"
  T/C: "102 % of control"
- compound: "O=S(=O)(/C=C\\c1ccccc1)Oc1ccccc1"
  T/C: "90 % of control"
- compound: "O=S(=O)(O)SCc1ccccc1CSS(=O)(=O)O"
  T/C: "108 % of control"
- compound: "CC/C(I)=C(/CC)S(=O)(=O)c1ccc(C)cc1"
  T/C: "94 % of control"
- compound: "O=C(c1ccccn1)c1ccccn1"
  T/C: "102 % of control"
- compound: "N#CNC=Nc1ccccc1"
  T/C: "100 % of control"
- compound: "CC(C)(Cl)[N+](=O)[O-]"
  T/C: "96 % of control"
- compound: "CC(=O)SCCNCC(C)(C)S"
  T/C: "95 % of control"
- compound: "C[N+](C)(C)CCP(=O)([O-])O"
  T/C: "101 % of control"
